target: T1, Flt-1 (1-3) monomer (UniProt P17948 27-331, limits assumed, biotin-labeled in the ELISA of Example 8); test: competition ELISA: plate coated with VEGF (8-109), 100 pM biotin-labeled Flt1(1-3), serial dilutions of the competing VEGF (Example 8)
T1 construct: domain: domains 1 to 3; Genentech reagent; also called Flt(1-3); domains 1 to 3 of Flt-1
T1 sequence (P17948 27-331 limits assumed): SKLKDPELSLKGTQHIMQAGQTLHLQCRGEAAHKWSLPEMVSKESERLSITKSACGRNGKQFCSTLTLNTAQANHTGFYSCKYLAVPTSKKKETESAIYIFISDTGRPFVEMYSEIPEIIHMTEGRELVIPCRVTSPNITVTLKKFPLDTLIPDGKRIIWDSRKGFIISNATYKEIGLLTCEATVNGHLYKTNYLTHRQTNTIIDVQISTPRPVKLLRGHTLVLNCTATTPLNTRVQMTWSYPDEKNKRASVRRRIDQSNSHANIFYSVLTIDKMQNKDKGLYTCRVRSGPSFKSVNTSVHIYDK
Threshold check on fold reduction in binding (IC50 variant / IC50 VEGF(1-109)): at or above 7 fold gives fulfilled, strictly below gives not fulfilled.

Ile 46* (ligand) APMAEGGGQNHHEVVKFMDVYQRSYCHPIETLVDIFQEYPDEIEYAFKPSCVPLMRCGGCCNDEGLECVPTEESNITMQIMRIKPHQGQHIGEMSFLQHNKCECRPKKD = not fulfilled
Arg 105 (ligand) APMAEGGGQNHHEVVKFMDVYQRSYCHPIETLVDIFQEYPDEIEYIFKPSCVPLMRCGGCCNDEGLECVPTEESNITMQIMRIKPHQGQHIGEMSFLQHNKCECAPKKD = not fulfilled
Gly 65** (ligand) APMAEGGGQNHHEVVKFMDVYQRSYCHPIETLVDIFQEYPDEIEYIFKPSCVPLMRCGGCCNDEALECVPTEESNITMQIMRIKPHQGQHIGEMSFLQHNKCECRPKKD = not fulfilled
Glu 64* (ligand) APMAEGGGQNHHEVVKFMDVYQRSYCHPIETLVDIFQEYPDEIEYIFKPSCVPLMRCGGCCNDAGLECVPTEESNITMQIMRIKPHQGQHIGEMSFLQHNKCECRPKKD = not fulfilled
Ile 43* (ligand) APMAEGGGQNHHEVVKFMDVYQRSYCHPIETLVDIFQEYPDEAEYIFKPSCVPLMRCGGCCNDEGLECVPTEESNITMQIMRIKPHQGQHIGEMSFLQHNKCECRPKKD = not fulfilled
Asp 63** (ligand) APMAEGGGQNHHEVVKFMDVYQRSYCHPIETLVDIFQEYPDEIEYIFKPSCVPLMRCGGCCNAEGLECVPTEESNITMQIMRIKPHQGQHIGEMSFLQHNKCECRPKKD = fulfilled
Gln 22** (ligand) APMAEGGGQNHHEVVKFMDVYARSYCHPIETLVDIFQEYPDEIEYIFKPSCVPLMRCGGCCNDEGLECVPTEESNITMQIMRIKPHQGQHIGEMSFLQHNKCECRPKKD = fulfilled
Glu 103 (ligand) APMAEGGGQNHHEVVKFMDVYQRSYCHPIETLVDIFQEYPDEIEYIFKPSCVPLMRCGGCCNDEGLECVPTEESNITMQIMRIKPHQGQHIGEMSFLQHNKCACRPKKD = not fulfilled
Gln 79* (ligand) APMAEGGGQNHHEVVKFMDVYQRSYCHPIETLVDIFQEYPDEIEYIFKPSCVPLMRCGGCCNDEGLECVPTEESNITMAIMRIKPHQGQHIGEMSFLQHNKCECRPKKD = not fulfilled
Lys 101 (ligand) APMAEGGGQNHHEVVKFMDVYQRSYCHPIETLVDIFQEYPDEIEYIFKPSCVPLMRCGGCCNDEGLECVPTEESNITMQIMRIKPHQGQHIGEMSFLQHNACECRPKKD = not fulfilled
Phe 17* (ligand) APMAEGGGQNHHEVVKAMDVYQRSYCHPIETLVDIFQEYPDEIEYIFKPSCVPLMRCGGCCNDEGLECVPTEESNITMQIMRIKPHQGQHIGEMSFLQHNKCECRPKKD = fulfilled
Leu 66** (ligand) APMAEGGGQNHHEVVKFMDVYQRSYCHPIETLVDIFQEYPDEIEYIFKPSCVPLMRCGGCCNDEGAECVPTEESNITMQIMRIKPHQGQHIGEMSFLQHNKCECRPKKD = fulfilled
Tyr 21** (ligand) APMAEGGGQNHHEVVKFMDVAQRSYCHPIETLVDIFQEYPDEIEYIFKPSCVPLMRCGGCCNDEGLECVPTEESNITMQIMRIKPHQGQHIGEMSFLQHNKCECRPKKD = fulfilled
Lys 48** (ligand) APMAEGGGQNHHEVVKFMDVYQRSYCHPIETLVDIFQEYPDEIEYIFAPSCVPLMRCGGCCNDEGLECVPTEESNITMQIMRIKPHQGQHIGEMSFLQHNKCECRPKKD = not fulfilled
Lys 16 (ligand) APMAEGGGQNHHEVVAFMDVYQRSYCHPIETLVDIFQEYPDEIEYIFKPSCVPLMRCGGCCNDEGLECVPTEESNITMQIMRIKPHQGQHIGEMSFLQHNKCECRPKKD = not fulfilled
